Test system: U251 CNS
Experiment: NCI tumour cell line growth inhibition, 48 h
assay-readout: TGI

See these solved cases before continuing.
Nc1nc(N)c2cc(Sc3ccc4nc(N)nc(N)c4c3)ccc2n1 :: > 100 µM
CC(=O)OCC1OC(N2C(=O)C(=O)c3cc(C)ccc32)C(OC(C)=O)C(OC(C)=O)C1OC(C)=O (stereo not drawn) :: > 100 µM
Cc1cc(Cl)ccc1NC(=O)CCCC(=O)C1CCCC1=O (stereo not drawn) :: > 100 µM
CCN(CC)C1Oc2cc3c(cc2C(c2ccc(OC)cc2)C1C)OCO3 (stereo not drawn) :: 54.9 µM
O=C1c2ccccc2-c2c1c1ccccc1c(=O)n2CCCNCCCn1ccnc1 :: 1.42 µM
O=C1CC(=O)NC(=NN2C(=O)/C(=C/C(=O)c3ccco3)N=C2c2ccccc2)N1 :: > 100 µM

Note down TGI recorded for C=CC1(C(=O)O)CCC(C(C)(C)C)CC1 (stereo not drawn)
> 100 µM

Note down TGI recorded for CC(C)=CCC[C@@H](C)C1=C(O)C(O)C(C)=C2N=C(c3ccccc3)C(=O)OC21 (stereo partly drawn)
> 25 µM
